target: T1, recombinant human DLL4 (Cat# 1506-D4/CF, R&D Systems) (human, UniProt Q9NR61 27-529); test: ELISA, DLL4 coated, Fab 2.22 nM
T1 construct: Bought protein; also called hDLL4; rHuman DLL4
Could you please report measured ELISA absorbance at 450 nm for the items listed next?
Numbers only, in A450.

Provide the reported ELISA absorbance at 450 nm of each entry below, same order.
1. Fab VH1-46_IGHD6-6*01_IGHJ1*01 S102A/S103P/S104F/H111F N52L/S54T/G56H & L6_IGKJ1*01 S28N/S30D/S31H S52L/A55S (Fab, V domains shown, Fab made in E. coli: VH on CH1 with His6 and Flag tags (Plasmid A), VL on kappa CL (Plasmid C); also called H: APFF LTH & L: NDH LS) VH: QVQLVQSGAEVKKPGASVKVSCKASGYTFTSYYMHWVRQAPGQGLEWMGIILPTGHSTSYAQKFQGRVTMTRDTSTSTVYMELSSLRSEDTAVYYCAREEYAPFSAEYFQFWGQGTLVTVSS VL: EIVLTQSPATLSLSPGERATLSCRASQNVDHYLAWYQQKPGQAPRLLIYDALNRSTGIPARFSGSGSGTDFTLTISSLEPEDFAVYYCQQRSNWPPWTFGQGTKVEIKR
2. Fab VH1-46_IGHD6-6*01_IGHJ1*01 S102A/S103P/S104F/H111F I51V/N52L/S54T/G56H & L6_IGKJ1*01 S28N/S30D/S31H S52L/A55S (Fab, V domains shown, Fab made in E. coli: VH on CH1 with His6 and Flag tags (Plasmid A), VL on kappa CL (Plasmid C); also called H: APFF VLTH & L: NDH LS) VH: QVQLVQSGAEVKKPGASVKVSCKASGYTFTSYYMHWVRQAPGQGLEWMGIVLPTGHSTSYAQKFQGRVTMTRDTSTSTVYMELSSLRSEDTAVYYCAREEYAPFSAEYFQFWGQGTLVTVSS VL: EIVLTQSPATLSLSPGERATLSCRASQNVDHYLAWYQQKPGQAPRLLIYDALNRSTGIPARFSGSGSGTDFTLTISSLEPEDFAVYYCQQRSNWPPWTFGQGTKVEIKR
3. Fab VH1-46_IGHD6-6*01_IGHJ1*01 S102A/S103P/S104F/H111F I51V/N52L/S54T/G56H & L6_IGKJ1*01 S28N/S30D/S31H S52L/A55G (Fab, V domains shown, Fab made in E. coli: VH on CH1 with His6 and Flag tags (Plasmid A), VL on kappa CL (Plasmid C); also called H: APFF VLTH & L: NDH LG) VH: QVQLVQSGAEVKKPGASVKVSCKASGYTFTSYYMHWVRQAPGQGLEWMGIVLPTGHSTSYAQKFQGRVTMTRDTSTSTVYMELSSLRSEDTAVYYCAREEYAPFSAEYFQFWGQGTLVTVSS VL: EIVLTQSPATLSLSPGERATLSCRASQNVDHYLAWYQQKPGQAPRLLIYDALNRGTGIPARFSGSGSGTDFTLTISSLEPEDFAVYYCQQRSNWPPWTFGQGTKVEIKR
4. Fab VH5-51_IGHD5-18*01>3_IGHJ4*01 G100K/G104T G24T/S28R/G35V & V3-4_IGLJ1*01 M94R/S96M (Fab, V domains shown, Fab made in E. coli: VH on CH1 with His6 and Flag tags (Plasmid A), VL on lambda CL (Plasmid E); also called H: KT TRV & L: RM; KT TRV-V3-4 RM) VH: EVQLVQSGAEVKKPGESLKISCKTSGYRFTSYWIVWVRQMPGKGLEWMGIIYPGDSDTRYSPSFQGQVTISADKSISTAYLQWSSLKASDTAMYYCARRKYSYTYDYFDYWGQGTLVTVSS VL: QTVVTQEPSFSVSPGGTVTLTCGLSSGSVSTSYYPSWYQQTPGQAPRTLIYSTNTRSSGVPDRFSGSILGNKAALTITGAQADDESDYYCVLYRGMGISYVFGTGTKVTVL
5. Fab VH1-46_IGHD6-6*01_IGHJ1*01 S102A/S103P/S104F/H111F I51A/N52L/S54T/G56H & L6_IGKJ1*01 S28N/S30D/S31H S52L/A55G (Fab, V domains shown, Fab made in E. coli: VH on CH1 with His6 and Flag tags (Plasmid A), VL on kappa CL (Plasmid C); also called H: APFF ALTH & L: NDH LG) VH: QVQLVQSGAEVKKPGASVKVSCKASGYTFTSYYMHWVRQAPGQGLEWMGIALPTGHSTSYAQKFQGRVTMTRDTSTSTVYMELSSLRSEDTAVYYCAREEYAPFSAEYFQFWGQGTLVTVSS VL: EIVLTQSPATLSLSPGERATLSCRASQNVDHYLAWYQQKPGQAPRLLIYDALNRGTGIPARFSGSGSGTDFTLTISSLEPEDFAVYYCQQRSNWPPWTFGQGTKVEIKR
6. Fab VH1-46_IGHD6-6*01_IGHJ1*01 S102A/S103P/S104F/H111F I51V/N52L/S54T/G56H & L6_IGKJ1*01 S28N/S30D/S31H (Fab, V domains shown, Fab made in E. coli: VH on CH1 with His6 and Flag tags (Plasmid A), VL on kappa CL (Plasmid C); also called H: APFF VLTH & L: NDH) VH: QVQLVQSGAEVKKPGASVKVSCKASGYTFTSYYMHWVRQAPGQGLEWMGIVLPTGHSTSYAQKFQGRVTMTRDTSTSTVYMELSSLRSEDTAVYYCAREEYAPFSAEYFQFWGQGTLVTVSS VL: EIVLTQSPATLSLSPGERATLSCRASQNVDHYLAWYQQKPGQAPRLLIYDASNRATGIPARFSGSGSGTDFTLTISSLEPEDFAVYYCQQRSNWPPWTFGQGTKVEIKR

Response:
1: 0.557; 2: 0.523; 3: 0.755; 4: 0.028; 5: 0.069; 6: 0.608
